Hey, just so you know, these numbers are from PubChem BioAssay (NCI).

# Test system: OVCAR-8 ovarian
# procedure.text: NCI-60 one-dose screen, 48 h (100 = growth as untreated, 0 = no growth, -100 = all killed)
# run.conditions: 10 µM unless noted
Compounds without any hit were thinned out: in the full panel of roughly 83,000, 20% have a hit.
Please use yes for growth under 60% and no for everything else, ties included.

Exercise: # check: growth < 60% for COc1ccc(Cn2cc3c(c2-c2ccccc2)CCCc2cnoc2-3)cc1
Key: no

Exercise: In the record for N#C/C(=C\c1ccc(N2CCCCC2)cc1)C(=O)Nc1sc2c(c1C#N)CCC2 , is growth less than 60%?
Key: no

Exercise: Quick check: growth of CC(=O)Nc1ccc(NC(=O)Nc2cccc(-c3nc(-c4ccc(NC(=O)c5cccnc5)cc4Cl)no3)c2)cc1C(F)(F)F under 60%?
Key: yes

Exercise: Hello, is growth of the following compound strictly smaller than 60%? O=c1cc(-c2ccccc2)nc2sc(-c3c[nH]c4ccc(F)cc34)nn12
Key: no

Exercise: For this compound, is growth lower than 60%? C#CCOc1ccc(/C=N/Nc2nc(-c3cc(Cl)ccc3Cl)cs2)cc1
Key: no

Exercise: Threshold test, growth < 60%: CN(C)C(=O)C1=NC(CO)C(=O)N(c2ccc(Cl)cc2)N1 (stereo unspecified)
Key: no

Exercise: I wonder whether CSc1nccc(-c2c(-c3ccc(F)c(OCc4ccc(F)cc4)c3)nc3sccn23)n1 has growth below 60%. Can you tell?
Key: no

Exercise: Does this compound meet the criterion growth < 60%? COc1ccc(NS(=O)(=O)c2ccc(-c3cnc(C4CC4)o3)cc2)cc1Cl
Key: yes

Exercise: Strictly below 60%: is that where growth of O=C(NNc1nc2cc(F)cc(F)c2n2cccc12)c1ccncn1 sits?
Key: yes

Exercise: Report whether reported growth is lower than 60% (strictly) for CC[C@H](C)[C@H]1NC(=O)[C@@H]([C@H](O)C(C)C)NC(=O)[C@@H](C)N(C)C(=O)[C@H](C)N(C)C(=O)[C@H](CC(C)C)NC(=O)[C@H](CC(C)C)N(C)C(=O)[C@H](C)N(C)C1=O
Key: yes

Exercise: Identify whether the compound CCN(CC)c1ccc2cc(C(=O)NCCOCCOCCOCCn3cc(CCC(=O)Nc4ccc(C(=O)c5ccc(NC(=O)OC(C)(C)C)cc5)cc4)nn3)c(=O)oc2c1 records growth below 60%.
Key: yes

Exercise: # TODO verify growth < 60% strictly for this compound: Cc1nn(-c2ccccc2)c2nc(CCl)[nH]c(=O)c12
Key: no

Exercise: Just wondering, is growth of Nc1nc(N)c2c(n1)NC(c1ccc(Cl)cc1)CC(c1ccc(Nc3nc(NCCO)nc(Nc4ccc(Cl)cc4)n3)cc1)=N2 (stereo unspecified) below 60%?
Key: yes

Exercise: Does the reported growth of the following compound sit strictly below 60%? Cn1cc(-c2nn3cc(-c4ccncc4)nc3s2)c2cc(Cl)ccc21
Key: yes

Exercise: Please check: growth for CCCCCCCCCC[C@@H](C)[C@@H]1CC(=O)N[C@H]([C@@H](C)O)C(=O)N[C@@H](C)C(=O)N[C@H](C)C(=O)N[C@@H](CCC(N)=O)C(=O)N[C@H](Cc2ccc(O)cc2)C(=O)N[C@@H](C(C)CC)C(=O)O1 (stereo partly specified) , strictly under 60% or not?
Key: yes

Exercise: Input CC1(C)CC[C@]2(C(=O)N3CCCN(CC#N)CC3)CC[C@]3(C)C(=CC[C@@H]4[C@@]5(C)CC[C@H](O)C(C)(C)[C@@H]5CC[C@]43C)[C@H]2C1 ; condition: growth strictly below 60%. Does it hold?
Key: yes
